Test system: Vero E6 infected with SARS-CoV-2
Assay: morphology score (similarity to uninfected cells); higher = more like uninfected cells
Details: 24 h
Measurement Type: morphology score

Reported morphology score of CN(C)/C=N/c1c(I)cc(I)c(CCC(=O)O)c1I [iopodic-acid] (10 µM) : 0.0727

Reported morphology score of CNCCn1c(=O)c2cc(OC)c(OC)cc2c2cnc3cc4c(cc3c21)OCO4 (10 µM) : -0.381

Reported morphology score of CCN(CCNC(=O)Nc1ccccc1Br)c1cccc(C)c1 (10 µM) : -0.0408

Reported morphology score of c1ccc2c(CCNc3ccc(Nc4ccncc4)cc3)c[nH]c2c1 [serdemetan] (10 µM) : 0.933

Reported morphology score of CN(C)[C@@H]1C(O)=C(C(N)=O)C(=O)[C@@]2(O)C(O)=C3C(=O)c4c(O)cccc4[C@@](C)(O)[C@H]3[C@H](O)[C@@H]12 [oxytetracycline] (10 µM) : -0.0366

====

Test system: Vero E6 infected with SARS-CoV-2
Assay: inhibition of SARS-CoV-2 cytopathic effect; higher = more antiviral protection, active = above 15
Details: 8.33 nM; 48 h
Record form. Attribute: inhibition of SARS-CoV-2 cytopathic effect. Fill in for each entry.
Numeric answer only, unit % assumed.

Reported inhibition of SARS-CoV-2 cytopathic effect of C=C[C@@H]1C[C@]1(NC(=O)[C@@H]1C[C@@H](Oc2ncc(OC)c3ccc(Cl)cc23)CN1C(=O)[C@@H](NC(=O)OC(C)(C)C)C(C)(C)C)C(=O)NS(=O)(=O)C1CC1 [asunaprevir] : 0.38

Reported inhibition of SARS-CoV-2 cytopathic effect of O=c1c(O)c(-c2ccc(O)cc2O)oc2cc(O)cc(O)c12 [morin] : -0.07

Reported inhibition of SARS-CoV-2 cytopathic effect of Cc1ccc(CC2(O)CCN(CCOc3ccc(O)cc3)CC2)cc1 : 1.47

Reported inhibition of SARS-CoV-2 cytopathic effect of Cc1[nH]cnc1CN1CCc2c(c3ccccc3n2C)C1=O [alosetron] : -3.23

Reported inhibition of SARS-CoV-2 cytopathic effect of CN1CCN(C(=O)c2nc3ccc(Cl)cc3[nH]2)CC1 : 1.3

Reported inhibition of SARS-CoV-2 cytopathic effect of CN(C)CCN1C(=O)c2cccc3cc(NC(N)=O)cc(c23)C1=O [unbs-5162] : 4.76

Reported inhibition of SARS-CoV-2 cytopathic effect of Cc1ncc([N+](=O)[O-])n1CC(O)CCl (stereo unspecified) [ornidazole] : 0.99

Reported inhibition of SARS-CoV-2 cytopathic effect of CCCCC(=O)O[C@H]1CC[C@H]2[C@@H]3CCc4cc(O)ccc4[C@H]3CC[C@]12C : 0.74

Reported inhibition of SARS-CoV-2 cytopathic effect of CC1(C)OC[C@@H](COC(=O)CCc2ccc(OC[C@@H](O)CNCCNC(=O)N3CCOCC3)cc2)O1 [landiolol] : -4.59

Reported inhibition of SARS-CoV-2 cytopathic effect of C[C@@H]1COCCN1c1cc(=O)n2c(n1)N(Cc1cncc(Cl)c1)[C@H](C(F)(F)F)CC2 : 2.22

Reported inhibition of SARS-CoV-2 cytopathic effect of CCCCc1ccc(NS(=O)(=O)c2ccc(F)cc2)cc1 : -2.12

Reported inhibition of SARS-CoV-2 cytopathic effect of COc1ccc([C@@H]2CC(=O)c3c(O)cc(O[C@@H]4O[C@H](CO[C@@H]5O[C@@H](C)[C@H](O)[C@@H](O)[C@H]5O)[C@@H](O)[C@H](O)[C@H]4O)cc3O2)cc1O [hesperidin] : 2.76

Reported inhibition of SARS-CoV-2 cytopathic effect of Cn1cnc2c1c(=O)[nH]c(=O)n2C [theobromine] : 1.86

Reported inhibition of SARS-CoV-2 cytopathic effect of O=C(Nc1cc(Oc2cc(F)c(NC(=O)C3(C(=O)Nc4ccc(F)cc4)CC3)cc2F)ccn1)C1CC1 [altiratinib] : 2.23

Reported inhibition of SARS-CoV-2 cytopathic effect of CC[C@@H](C)CNCC(=O)N1CCc2sccc2[C@@H]1COc1cccc(C)c1 : 3.61

Reported inhibition of SARS-CoV-2 cytopathic effect of Cc1ccc(Sc2cncc3sc(C(N)=O)cc23)cc1 : -2.96

Reported inhibition of SARS-CoV-2 cytopathic effect of Cc1cc(-c2ccccc2)nnc1NCCN1CCOCC1 [minaprine] : 0.75

Reported inhibition of SARS-CoV-2 cytopathic effect of CCn1c2ccccc2c2cc(Nc3ccnc(NCCCN4CCOCC4)n3)ccc21 : -1.13

Reported inhibition of SARS-CoV-2 cytopathic effect of CC(=O)NCCc1c[nH]c2ccccc12 [N-acetyltryptamine] : 2.35

Reported inhibition of SARS-CoV-2 cytopathic effect of CC[C@@H](c1ccc(F)c(F)c1)n1c(C(=O)OC)c(-c2ccno2)[nH]c1=S : 2.77

Reported inhibition of SARS-CoV-2 cytopathic effect of NC1=N[C@@](c2cccc(-c3cncnc3)c2)(c2ccnc(C(F)F)c2)c2cccc(F)c21 : -1.06

src = the supplement of paper PMC13380429
